Assay: NCI Yeast Anticancer Drug Screen. Data for the sgs1 strain (AID 173);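 also: 0% = growth of vehicle-only control cultures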
Details: S. cerevisiae sgs1 mutant, at 100.0 µM, stronger effect = higher value
Compounds without any hit were thinned out: in the full panel of roughly 79,000, 15% have a hit.
measurement_kind: growth inhibition (%)

INSERT INTO results (molecule, measurement_kind, unit_string, observed_result) VALUES
  ('O=C(Nc1cccs1)c1ccccc1', 'growth inhibition', '%', 86),
  ('Cc1cccc2c(Cl)c3cccc(C)c3nc12', 'growth inhibition', '%', 2),
  ('CC1(C)C(O)OC(O)C1(C)C (stereo unspecified)', 'growth inhibition', '%', 63),
  ('COC(=O)C(Cl)(Cl)N=Nc1c(Cl)cc(Cl)c(C)c1Cl', 'growth inhibition', '%', 100),
  ('O=C(O)/C=C\C(=O)Nc1ccc2c(c1)Cc1cc(Cl)ccc1-2', 'growth inhibition', '%', 50),
  ('C1=CCN([B-](c2ccccc2)[C+]2CCCCC2)C=C1', 'growth inhibition', '%', 99),
  ('CC1=CC(=O)C=CC1=Nc1cc(Cl)c(O)c(Cl)c1', 'growth inhibition', '%', 89),
  ('O=C(NOC(=O)c1ccc([N+](=O)[O-])cc1)c1ccc(Cl)cc1', 'growth inhibition', '%', 95),
  ('C/C(=N/NC(=S)Nc1ccccc1C)c1ccccn1', 'growth inhibition', '%', -6),
  ('O=[N+]([O-])c1cn[n+]([O-])c2ccccc12', 'growth inhibition', '%', 98),
  ('CCCCCCCCCCCCCCCCCCNc1nc(=O)n(C2CC(OP(=O)(O)OCC3OC(n4cc(F)c(=O)[nH]c4=O)CC3O)C(CO)O2)cc1F (stereo unspecified)', 'growth inhibition', '%', 78);

---

Experiment: NCI Yeast Anticancer Drug Screen. Data for the rad50 strain (AID 155);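 also: 0% = growth of vehicle-only cultures of the same strain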
Conditions: S. cerevisiae rad50 strain growth inhibition; at 100.0 µM; stronger effect = higher value
This is part of a sample that, as a whole, favours compounds with a hit. Of some 79,000 tested, about 15% had one in any assay.
Assign class by growth inhibition: not lower than 90% means label 1; lower than 90% means label 0.

INSERT INTO measurements (molecule, group) VALUES
  ('OC(Cc1cccc2ccccc12)CN1CCC(c2ccccc2)CC1 (configuration not stated)', 'label 1'),
  ('O=C1Oc2ccccc2C(=O)/C1=C/N1C(=O)N/C(=C\c2ccccc2Br)C1=O', 'label 1'),
  ('CC(C)CCC[C@@H](C)[C@H]1CC[C@H]2[C@@H]3CC[C@H]4C[C@H](N)CC[C@]4(C)[C@H]3CC[C@]12C', 'label 0'),
  ('COc1ccc(C(C)c2cc3c(cc2OC(C)O)OCO3)cc1 (configuration not stated)', 'label 1'),
  ('Cc1cc(O)c(C(C)C)cc1SC#N', 'label 1'),
  ('CC1CCN(CCC(=O)c2ccc([N+](=O)[O-])cc2)CC1', 'label 0'),
  ('CC(C)N(CCCNc1c2ccccc2nc2cccc([N+](=O)[O-])c12)C(C)C', 'label 1'),
  ('COC(=O)C(Cl)(Cl)N=Nc1c(Cl)cc(Cl)c(C)c1Cl', 'label 1'),
  ('CC1(C)C(O)OC(O)C1(C)C (configuration not stated)', 'label 0'),
  ('CC(C)OC(=O)NNc1c(Cl)cc(Cl)cc1Cl', 'label 0'),
  ('Cc1ccc([N+](=O)[O-])c2c(NCCC[N+](C)(C)[O-])c3ccccc3nc12', 'label 0'),
  ('CSC(=S)N/N=C/c1ccccc1', 'label 0'),
  ('O=C1c2ccccc2-c2ccc(N=Cc3ccccc3)cc21', 'label 1'),
  ('O=[N+]([O-])[O][Sn]([O][Sn]([O][N+](=O)[O-])([c]1ccccc1)[c]1ccccc1)([c]1ccccc1)[c]1ccccc1', 'label 0'),
  ('COc1ccc2c3c1OC(C)C31CC(=O)CCC1CC2 (configuration not stated)', 'label 0'),
  ('CC(=O)O[C@H]1CC[C@@]2(C)C(=CC[C@@H]3C2CC[C@]2(C)C(=O)NC(=O)CC32)C1 (some centres not stated)', 'label 0'),
  ('O=[N+]([O-])c1cn[n+]([O-])c2ccccc12', 'label 1'),
  ('O=[N+]([O-])c1ccc(S(=O)(=O)Cc2ccccc2)c([N+](=O)[O-])c1', 'label 1');

---

Assay: NCI Yeast Anticancer Drug Screen. Data for the CLN2oe strain (AID 163);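 also: 0% = growth of vehicle-only control cultures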
Conditions: S. cerevisiae CLN2oe strain, at 33.0 µM, stronger effect = higher value
About 79,000 compounds went through this panel and 15% of them were active in at least one assay; those are over-represented in the sample as a whole.
measurement_kind: growth inhibition (%)

INSERT INTO assay_data (compound, measurement_kind, observed_result) VALUES
  ('O=[N+]([O-])c1ccc2nc(=S)[nH]n2c1', 'growth inhibition', -5),
  ('CC(C)(Br)C(=O)/C=C/c1ccccc1', 'growth inhibition', 4),
  ('Cc1ccc(NC(=O)CCC(=O)C(C)C(=O)c2ccccc2)c(C)c1 (configuration not stated)', 'growth inhibition', 1),
  ('Cc1cc(Cl)ccc1NC(=O)/C(Cl)=C(/Cl)C(=O)O', 'growth inhibition', 11),
  ('COc1ccc2c(c1)CCCC(Br)C2=O (configuration not stated)', 'growth inhibition', 45),
  ('COC(=O)C(=O)c1c(-c2ccc(Cl)c(Cl)c2)[nH]c2[nH]n(-c3ccccc3)c(=O)c2c1=O', 'growth inhibition', 64),
  ('O=C1c2ccccc2N2OC3(N4CCCC4)CCCCC3C12c1ccccc1 (configuration not stated)', 'growth inhibition', 4),
  ('CCCCCCCCN1COCC(COc2ccccc2C)OC1 (configuration not stated)', 'growth inhibition', 9),
  ('CCOP(=O)(OCC)/C(C#N)=C/c1ccc(-c2ccc(F)cc2F)o1', 'growth inhibition', -7),
  ('COc1cccc(C(NC2=NCCC=N2)c2cc3c(cc2O)OCO3)c1O (configuration not stated)', 'growth inhibition', 4),
  ('N#[N+]c1c([O-])c2ccccc2c2ccccc12', 'growth inhibition', 42),
  ('CCCCCCNCCCNc1c2ccccc2nc2cccc([N+](=O)[O-])c12', 'growth inhibition', 29);

---

Below: a set of entries, each annotated with reported growth inhibition.
Experiment: NCI Yeast Anticancer Drug Screen. Data for the CLN2oe strain (AID 163);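 also: 0% = growth of vehicle-only control cultures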
Details: S. cerevisiae CLN2oe strain, at 11.0 µM, stronger effect = higher value
This is part of a sample that, as a whole, favours compounds with a hit. Of some 79,000 tested, about 15% had one in any assay.
measurement_kind: growth inhibition (%)

INSERT INTO measurements (molecule, measurement_kind, unit_string, observed_result) VALUES
  ('N#Cc1nc(Nc2ccc(Cl)cc2)sc1N', 'growth inhibition', '%', 27),
  ('CN(C)CCNC(=Cc1ccc2ccccc2[n+]1C)NCCN(C)C', 'growth inhibition', '%', 0),
  ('O=[N+]([O-])/C=C/c1cc2ccc3ccccc3c2[nH]1', 'growth inhibition', '%', 31),
  ('CC(C(=O)N1C(=O)N(C(=O)C(C)C(O)c2ccccc2)C2CCCCC21)C(O)c1ccccc1 (stereo unspecified)', 'growth inhibition', '%', 4),
  ('CCC(OC(C)=O)C1CC(C(C)C)CCC1C (stereo unspecified)', 'growth inhibition', '%', 2),
  ('COc1ccc(C2CC(C)(N3CCCC3)Oc3cc4c(cc32)OCO4)cc1 (stereo unspecified)', 'growth inhibition', '%', -6),
  ('CO[C@@]1([C@@H](Cl)c2ccccc2)C(=O)N(C)/C(=C\c2ccccc2)C(=O)N1C', 'growth inhibition', '%', -1),
  ('Oc1c2c(c(O)c3ccccc13)C1(N=N2)c2ccccc2Oc2ccccc21', 'growth inhibition', '%', 98),
  ('CCN(CC)CCNc1ccc2ncn3c4ccc(O)cc4c(=O)c1c23', 'growth inhibition', '%', 0),
  ('O=C(O)c1cc2c(cc1S(=O)(=O)O)C1C(C3C2C2(Cl)C(Cl)=C(Cl)C3(Cl)C2(Cl)Cl)C2(Cl)C(Cl)=C(Cl)C1(Cl)C2(Cl)Cl (stereo unspecified)', 'growth inhibition', '%', -11),
  ('COc1cc(NCCCCNCC(C)(C)C)c2ncccc2c1', 'growth inhibition', '%', 12),
  ('COC(=O)C(Cc1c[nH]c2ccccc12)N1CN(C)c2ccccc2C1=O (stereo unspecified)', 'growth inhibition', '%', 3),
  ('Cc1ccc(S(=O)(=O)Nc2cccc3cccnc23)cc1', 'growth inhibition', '%', 41),
  ('Cc1ccnc2c(O)cccc12', 'growth inhibition', '%', 99),
  ('CNC(=O)OCc1c2ccncc2c(C)c2c1[nH]c1ccccc12', 'growth inhibition', '%', 21),
  ('O=CC1(F)CC1(c1ccccc1)c1ccccc1 (stereo unspecified)', 'growth inhibition', '%', 2);

---

Assay: NCI Yeast Anticancer Drug Screen. Data for the sgs1 strain (AID 173);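 also: 0% = growth of vehicle-only control cultures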
Conditions: S. cerevisiae sgs1 mutant, at 11.0 µM, stronger effect = higher value
Protocol: Growth inhibition of yeast strains with defined genetic alterations is measured as a screen for potential anti-cancer activity. Selected strains with alterations in DNA damage repair or cell cycle control were exposed to compounds and growth inhibition was measured relative to vehicle treated controls. The strain used in this assay is sgs1
About 79,000 compounds went through this panel and 15% of them were active in at least one assay; those are over-represented in the sample as a whole.
Below: a set of entries, each annotated with reported growth inhibition.
measurement_kind: growth inhibition (%)

INSERT INTO measurements (compound, measurement_kind, observed_result) VALUES
  ('[N-]=[N+]=NC1(c2ccccc2)C(=O)Nc2ccccc2C1=O (stereo not drawn)', 'growth inhibition', 9),
  ('CN(C)CC(CN(C)C)C(=O)/C=C/c1ccc(Cl)cc1Cl', 'growth inhibition', 5),
  ('CC1(C)C(O)OC(O)C1(C)C (stereo not drawn)', 'growth inhibition', 11),
  ('C[C@H](CCC1=NC(C)(C)CO1)C1CCC2[C@@H]3C(O)C[C@@H]4CC(O)CC[C@]4(C)C3CC[C@@]21C (stereo partly drawn)', 'growth inhibition', -6),
  ('O=C(c1ccccc1)[C@H]1Nc2ccc(Cl)cc2[C@H]2OCCC[C@@H]12', 'growth inhibition', 18),
  ('CCCCCCC=C(C(=O)OCC)C(=O)OCC', 'growth inhibition', 1),
  ('O=[N+]([O-])c1cccc2nc3ccccc3c(NCCCN3CCCCC3)c12', 'growth inhibition', 95),
  ('Cc1c(Cl)c(C)c(Cl)c(O)c1Cl', 'growth inhibition', 34),
  ('Oc1ccc(N=Nc2ccc(Cl)cc2)cc1', 'growth inhibition', 87),
  ('O=C(Oc1ccc([N+](=O)[O-])cc1)c1ccc([N+](=O)[O-])cc1', 'growth inhibition', -22),
  ('Clc1nc(Cl)nc(Nc2cccc3ccccc23)n1', 'growth inhibition', 77),
  ('O=C(O)C1CCCCC1c1c2ccc(=O)cc-2oc2cc(O)ccc12 (stereo not drawn)', 'growth inhibition', -15),
  ('O=C(Cc1ccccc1)NNc1nc(NNC(=O)c2ccncc2)nc(Nc2ccc(Cl)cc2)n1', 'growth inhibition', 7),
  ('COc1cc2c(cc1OC)[C@@H](Nc1ccc(C#N)cc1)C1COC(=O)[C@@H]1C2c1cc(OC)c(O)c(OC)c1 (stereo partly drawn)', 'growth inhibition', -2),
  ('O=C1C=C(Br)C(=O)c2ccccc21', 'growth inhibition', 93),
  ('CCCCCCCCCC(=O)N(CCC)CCC', 'growth inhibition', -17),
  ('O=c1[nH]c2c([N+](=O)[O-])cccc2c2ccccc12', 'growth inhibition', 7),
  ('O=C1Nc2ccc(Br)cc2C1=Nc1cccnc1', 'growth inhibition', -21),
  ('Cc1cccc(C)c1NC(=O)CCC(=O)C(C)C(=O)c1ccc(O)cc1 (stereo not drawn)', 'growth inhibition', -2),
  ('Nc1ccc(S(=O)(=O)Nc2nc3c(c(=O)[nH]2)CCCC3)cc1', 'growth inhibition', 95),
  ('CC1(C)CC(=O)C(C=NC(=S)C(N)=S)=C(O)C1', 'growth inhibition', -29),
  ('COC(=O)C(Cc1c[nH]c2ccccc12)N1CN(C)c2ccccc2C1=O (stereo not drawn)', 'growth inhibition', 1),
  ('CCC1(O)C(=O)OCc2c1cc1n(c2=O)Cc2cc3c(N)cccc3nc2-1 (stereo not drawn)', 'growth inhibition', 0);
